Target: Programmed cell death 1 ligand 1 (Homo sapiens)
Sequence (Q9NZQ7 whole entry): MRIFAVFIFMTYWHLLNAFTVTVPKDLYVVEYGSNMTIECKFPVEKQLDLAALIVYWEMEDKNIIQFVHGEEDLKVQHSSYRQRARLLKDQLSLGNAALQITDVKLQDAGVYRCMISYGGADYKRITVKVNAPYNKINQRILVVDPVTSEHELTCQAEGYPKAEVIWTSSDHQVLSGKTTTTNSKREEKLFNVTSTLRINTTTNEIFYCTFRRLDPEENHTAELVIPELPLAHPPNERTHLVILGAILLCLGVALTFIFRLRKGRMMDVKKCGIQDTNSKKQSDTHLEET
Assay: Inhibition of exosomal PD-L1 (unknown origin) generation preincubated with compound for 24 hrs followed by strep-d2 acceptor bead addition and measured after 30 mins by HTRF assay
# binning rule on IC50: I (below 200 nM), II (200 nM to below 3000 nM), III (3000 nM or more)

{"MOLECULE": "O=C(NCCN1CCOCC1)c1ccc(Cl)cc1 [MOCLOBEMIDE]", "SUBJECT_OF_TEST": "Programmed cell death 1 ligand 1 (Homo sapiens)", "LABEL_CLASS": "III"}
{"MOLECULE": "Cn1ccc2cc(-c3ccc(C(=O)NCCN4CCOCC4)cc3)ccc21", "SUBJECT_OF_TEST": "Programmed cell death 1 ligand 1 (Homo sapiens)", "LABEL_CLASS": "II"}
{"MOLECULE": "O=C(NCCN1CCOCC1)c1ccc(-c2ccc3c(c2)OCCO3)cc1", "SUBJECT_OF_TEST": "Programmed cell death 1 ligand 1 (Homo sapiens)", "LABEL_CLASS": "I"}
{"MOLECULE": "N#Cc1ccc(-c2ccc(C(=O)NCCN3CCOCC3)cc2)cc1", "SUBJECT_OF_TEST": "Programmed cell death 1 ligand 1 (Homo sapiens)", "LABEL_CLASS": "II"}
{"MOLECULE": "O=C(NCCN1CCOCC1)c1ccc(-c2ccc(C(F)(F)F)cc2)cc1", "SUBJECT_OF_TEST": "Programmed cell death 1 ligand 1 (Homo sapiens)", "LABEL_CLASS": "III"}
{"MOLECULE": "O=C(NCCN1CCOCC1)c1ccc(-c2cnc3[nH]ccc3c2)cc1", "SUBJECT_OF_TEST": "Programmed cell death 1 ligand 1 (Homo sapiens)", "LABEL_CLASS": "I"}
{"MOLECULE": "COc1ccc(-c2ccc(C(=O)NCCN3CCOCC3)cc2)cc1F", "SUBJECT_OF_TEST": "Programmed cell death 1 ligand 1 (Homo sapiens)", "LABEL_CLASS": "II"}
{"MOLECULE": "O=C(NCCN1CCOCC1)c1ccc(-c2cc3ccccc3s2)cc1", "SUBJECT_OF_TEST": "Programmed cell death 1 ligand 1 (Homo sapiens)", "LABEL_CLASS": "II"}
{"MOLECULE": "O=C(NCCN1CCOCC1)c1ccc(-c2ccn(C3CCCCO3)n2)cc1 (stereo not given)", "SUBJECT_OF_TEST": "Programmed cell death 1 ligand 1 (Homo sapiens)", "LABEL_CLASS": "II"}
{"MOLECULE": "O=C(NCCN1CCOCC1)c1ccc(-c2ccc3cc4ccccc4cc3c2)cc1", "SUBJECT_OF_TEST": "Programmed cell death 1 ligand 1 (Homo sapiens)", "LABEL_CLASS": "III"}
